Origin of values: ChEMBL document CHEMBL3286172

Test system: Human immunodeficiency virus type 1 reverse transcriptase (Human immunodeficiency virus 1), Q72547 [L100I]
Listed here are compounds together with their documented ID50.
METRIC: ID50 (nM)

{"COMPOUND": "CCC(C)Sc1nc(C(CC)c2c(F)cccc2F)c(C)c(=O)[nH]1 (racemic)", "VALUE UNIT": "nM", "RECORDED MEASUREMENT": 48}
{"COMPOUND": "CCCSc1nc(C(C)c2c(F)cccc2F)c(CC)c(=O)[nH]1 (racemic)", "VALUE UNIT": "nM", "RECORDED MEASUREMENT": 270}
{"COMPOUND": "CCCSc1nc(C(C)c2c(F)cccc2Cl)cc(=O)[nH]1 (racemic)", "VALUE UNIT": "nM", "RECORDED MEASUREMENT": 500}
{"COMPOUND": "CCCCSc1nc(C(C)c2c(F)cccc2Cl)cc(=O)[nH]1 (racemic)", "VALUE UNIT": "nM", "RECORDED MEASUREMENT": 600}

====

Listed here are molecules together with their documented pEC50.
Test system: Human immunodeficiency virus 1
PROCEDURE TEXT: Antiviral activity against HIV-1 harboring NNTRI-resistant reverse transcriptase Y181C mutant infected in human MT4 cells assessed as inhibition of virus-induced cytopathic effect by MTT method
Assay type: functional, organism-based
ASSAY CONTEXT: Human immunodeficiency virus 1, MT4
pEC50: −log10 of the molar value.

{"MOLECULE": "CCC(c1nc(SC2CCCC2)[nH]c(=O)c1C)c1c(F)cccc1Cl (racemic)", "pEC50": "< 5.52"}
{"MOLECULE": "CCc1c(C(C)c2c(F)cccc2Cl)nc(SC2CCCC2)[nH]c1=O (racemic)", "pEC50": "< 5.52"}
{"MOLECULE": "CCCSc1nc(C(C)c2c(F)cccc2F)c(C)c(=O)[nH]1 (racemic)", "pEC50": "< 5.52"}
{"MOLECULE": "CCC(c1nc(SC(C)C)[nH]c(=O)c1C)c1c(F)cccc1Cl (racemic)", "pEC50": "< 5.52"}
{"MOLECULE": "Cc1c([C@@H](C)c2c(F)cccc2Cl)nc(SC(C)C)[nH]c1=O", "pEC50": "< 4.43"}
{"MOLECULE": "CCC(C)Sc1nc(C(CC)c2c(F)cccc2Cl)c(C)c(=O)[nH]1 (racemic)", "pEC50": "< 5.52"}
{"MOLECULE": "CCCCSc1nc(O)c(C)c(C(C)c2c(F)cccc2F)n1 (racemic)", "pEC50": "< 5.52"}
{"MOLECULE": "CCCCSc1nc(C(C)c2c(F)cccc2F)c(CC)c(=O)[nH]1 (racemic)", "pEC50": "< 5.52"}
{"MOLECULE": "CCCSc1nc(C(CC)c2c(F)cccc2F)c(C)c(=O)[nH]1 (racemic)", "pEC50": "< 5.52"}
{"MOLECULE": "Cc1c(Cc2c(F)cccc2Cl)nc(SC2CCCC2)[nH]c1=O", "pEC50": "< 4.15"}
